Recorded values, source paper PMC11054528.

- TEST_DESCRIPTION: Fast gradient RP-HPLC on C18 column (CHI lipophilicity)
- Assay type: physicochemical
- REPORTED_CONDITIONS: C18 column, pH 2.6
Could you label it Y if measured CHIC18 pH = 2.6 is 60 or higher, and N otherwise?

Exercise: Entry `O=C1c2ccccc2S(=O)(=O)N1CCCCCCN1CCN(c2ccccc2)CC1` : is its CHIC18 pH = 2.6 no less than 60?
Key: N

Exercise: Entry `COc1ccc(N2CCN(CCCCCCN3C(=O)c4ccccc4S3(=O)=O)CC2)cc1` : is its CHIC18 pH = 2.6 no less than 60?
Key: N

Exercise: Entry `O=C1c2ccccc2S(=O)(=O)N1CCCCCCN1CCN(c2cccc3ccccc23)CC1` : is its CHIC18 pH = 2.6 no less than 60?
Key: Y

Exercise: Entry `O=C1c2ccccc2S(=O)(=O)N1CCCCCCN1CCN(c2cccc(Cl)c2)CC1` : is its CHIC18 pH = 2.6 no less than 60?
Key: Y

Exercise: Entry `COc1ccccc1N1CCN(CCCCCN2C(=O)c3ccccc3S2(=O)=O)CC1` : is its CHIC18 pH = 2.6 no less than 60?
Key: N

Exercise: Entry `O=C1c2ccccc2S(=O)(=O)N1CCCCCCN1CCN(c2ncccn2)CC1` : is its CHIC18 pH = 2.6 no less than 60?
Key: N

----------
- TEST_DESCRIPTION: Fast gradient RP-HPLC on C18 column (CHI lipophilicity)
- Type: physicochemical
- REPORTED_CONDITIONS: C18 column, pH 2.6
RECORDED_METRIC: CHIC18 pH = 2.6

Exercise: Find the recorded CHIC18 pH = 2.6 belonging to `O=C1c2ccccc2S(=O)(=O)N1CCCCCN1CCN(c2ncccn2)CC1` and report it.
Key: 48.71

Exercise: Find the recorded CHIC18 pH = 2.6 belonging to `O=C1c2ccccc2S(=O)(=O)N1CCCCCN1CCN(c2ccccn2)CC1` and report it.
Key: 38.96

Exercise: Find the recorded CHIC18 pH = 2.6 belonging to `O=C1c2ccccc2S(=O)(=O)N1CCCCCCN1CCN(c2nsc3ccccc23)CC1` and report it.
Key: 60.18

Exercise: Find the recorded CHIC18 pH = 2.6 belonging to `O=C1c2ccccc2S(=O)(=O)N1CCCCCN1CCN(c2cccc3ccccc23)CC1` and report it.
Key: 63.51

Exercise: Find the recorded CHIC18 pH = 2.6 belonging to `O=C1c2ccccc2S(=O)(=O)N1CCCCCCN1CCN(c2cccc(C(F)(F)F)c2)CC1` and report it.
Key: 63.86

Exercise: Find the recorded CHIC18 pH = 2.6 belonging to `COc1ccccc1N1CCN(CCCCCCN2C(=O)c3ccccc3S2(=O)=O)CC1` and report it.
Key: 54.89

Exercise: Find the recorded CHIC18 pH = 2.6 belonging to `COc1ccccc1N1CCN(CCCCN2C(=O)c3ccccc3S2(=O)=O)CC1` and report it.
Key: 60.08

Exercise: Find the recorded CHIC18 pH = 2.6 belonging to `O=C1c2ccccc2S(=O)(=O)N1CCCCCN1CCN(c2ccc(Cl)cc2)CC1` and report it.
Key: 97.99

Exercise: Find the recorded CHIC18 pH = 2.6 belonging to `O=C1c2ccccc2S(=O)(=O)N1CCCCCCN1CCN(c2ccccc2F)CC1` and report it.
Key: 57.21
